Experiment: Half-life when incubated at 37 C in 0.05 M phosphate buffer, pH 7.4, the concentration of 12 uM,
Assay type: ADME
attribute.measured: half-life at 12 µM (min)
Unit min implied. Number only.

Ask: State its half-life at 12 µM: CCOC(CCCN)O[C@@H]1O[C@H](C(=O)[O-])[C@@H](O)[C@H](O)[C@H]1O.[Na+] (stereo partly specified)
Result: 1800

====

Test system: glucuronidase
Assay: Half-life in the presence of Escherichia coli -glucuronidase
Type: ADME
Conditions: Escherichia coli glucuronidase enzyme
attribute.measured: half-life (h)
All answers are understood in h, so give the number only.

Ask: Report half-life, nothing else, for this compound: CCOC(CCCN)O[C@@H]1O[C@H](C(=O)[O-])[C@@H](O)[C@H](O)[C@H]1O.[Na+] (stereo partly specified)
Result: 1.7
